- Tested target: CYP2C19 (Homo sapiens)
- Construct: human liver microsomes (0.25 mg/mL); from tissue; host or cells: human liver microsomes
- Sequence (P33261 whole entry): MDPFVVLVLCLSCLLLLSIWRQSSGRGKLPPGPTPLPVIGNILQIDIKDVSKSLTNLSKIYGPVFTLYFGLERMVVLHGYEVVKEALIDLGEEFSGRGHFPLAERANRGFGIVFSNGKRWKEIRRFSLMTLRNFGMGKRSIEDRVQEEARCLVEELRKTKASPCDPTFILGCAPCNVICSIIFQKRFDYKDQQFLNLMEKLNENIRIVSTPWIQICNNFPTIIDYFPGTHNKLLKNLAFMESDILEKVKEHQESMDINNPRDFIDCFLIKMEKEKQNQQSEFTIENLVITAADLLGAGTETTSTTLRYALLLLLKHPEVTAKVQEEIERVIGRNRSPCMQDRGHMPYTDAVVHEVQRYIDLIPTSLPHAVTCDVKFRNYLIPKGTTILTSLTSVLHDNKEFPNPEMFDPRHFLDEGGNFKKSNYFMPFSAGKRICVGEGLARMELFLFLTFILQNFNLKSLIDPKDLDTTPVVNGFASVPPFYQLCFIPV
- Test: Inhibitory effect on CYP coenzyme activity, human liver microsomes
- Format: in vitro ADME
- Assay setup: 10 μM compound, human liver microsomes 0.25 mg/mL, substrate S-mephenytoin, 15 minutes
- Experimental: The inhibitory effects of the compounds prepared according to Examples 1 to 57 on CYP coenzyme activity were identified. […] Metabolites of each CYP coenzyme indicator drug generated through the reaction were analyzed using the Shimadzu Nexera XR system and TSQ Vantage (Thermo). […] The generated metabolites were quantified using a multiple reaction monitoring (MRM) quantification mode, and Xcalibur (version 1.6.1) was used for data analysis. […]
Value kind: CYP2C19 coenzyme activity (%) with respect to control group not treated

Lab request: please report CYP2C19 coenzyme activity (%) with respect to control group not treated under test system CYP2C19 (Homo sapiens) for N#CC(C#N)=NNc1ccc2c(c1)sc(=O)n2C(F)F [Compound 19] 75.7%

Lab request: please report CYP2C19 coenzyme activity (%) with respect to control group not treated under test system CYP2C19 (Homo sapiens) for Cn1c(=O)[nH]c2cc(NN=C(C#N)C#N)ccc21 [Compound 17] 80.4%

Lab request: please report CYP2C19 coenzyme activity (%) with respect to control group not treated under test system CYP2C19 (Homo sapiens) for N#CC(C#N)=NNc1ccc2c(c1)n(C(F)F)c(=O)n2C(F)F [Compound 24] 73.9%

Lab request: please report CYP2C19 coenzyme activity (%) with respect to control group not treated under test system CYP2C19 (Homo sapiens) for Cn1c(=O)sc2cc(NN=C(C#N)C#N)ccc21 [Compound 14] 68.8%

Lab request: please report CYP2C19 coenzyme activity (%) with respect to control group not treated under test system CYP2C19 (Homo sapiens) for CC(C)n1c(=O)oc2ccc(NN=C(C#N)C#N)cc21 [Compound 29] 91.3%

Lab request: please report CYP2C19 coenzyme activity (%) with respect to control group not treated under test system CYP2C19 (Homo sapiens) for CC(C)n1ccc2ccc(NN=C(C#N)C#N)cc2c1=O [Compound 3] 98.2%

Lab request: please report CYP2C19 coenzyme activity (%) with respect to control group not treated under test system CYP2C19 (Homo sapiens) for CC(C)n1c(=O)n(C(F)F)c2cc(NN=C(C#N)C#N)ccc21 [Compound 43] 60.2%

Lab request: please report CYP2C19 coenzyme activity (%) with respect to control group not treated under test system CYP2C19 (Homo sapiens) for COc1cc(NN=C(C#N)C#N)cc2c1n(C)c(=O)n2C [Compound 33] >100%

Lab request: please report CYP2C19 coenzyme activity (%) with respect to control group not treated under test system CYP2C19 (Homo sapiens) for CC(C)n1c(=O)n(C)c2ccc(NN=C(C#N)C#N)cc21 [Compound 36] 89.5%

Lab request: please report CYP2C19 coenzyme activity (%) with respect to control group not treated under test system CYP2C19 (Homo sapiens) for CCn1c(=O)n(C)c2cc(NN=C(C#N)C#N)ccc21 [Compound 38] >100%

Lab request: please report CYP2C19 coenzyme activity (%) with respect to control group not treated under test system CYP2C19 (Homo sapiens) for Cc1cc2c(NN=C(C#N)C#N)cccc2c(=O)n1C [Compound 7] 65.1%

Lab request: please report CYP2C19 coenzyme activity (%) with respect to control group not treated under test system CYP2C19 (Homo sapiens) for CC(C)n1c(=O)n(C2CC2)c2ncc(NN=C(C#N)C#N)cc21 [Compound 53] >100%

Lab request: please report CYP2C19 coenzyme activity (%) with respect to control group not treated under test system CYP2C19 (Homo sapiens) for N#CC(C#N)=NNc1ccc2c(c1)oc(=O)n2C(F)F [Compound 21] 83.7%

Lab request: please report CYP2C19 coenzyme activity (%) with respect to control group not treated under test system CYP2C19 (Homo sapiens) for Cn1c(=O)n(C)c2cc(NN=C(C#N)C#N)ccc21 [Compound 22] >100%

---

- Tested target: CYP1A2 (Homo sapiens, UniProt P05177)
- Construct: human liver microsomes (0.25 mg/mL); from tissue; host or cells: human liver microsomes
- Sequence (P05177 whole entry): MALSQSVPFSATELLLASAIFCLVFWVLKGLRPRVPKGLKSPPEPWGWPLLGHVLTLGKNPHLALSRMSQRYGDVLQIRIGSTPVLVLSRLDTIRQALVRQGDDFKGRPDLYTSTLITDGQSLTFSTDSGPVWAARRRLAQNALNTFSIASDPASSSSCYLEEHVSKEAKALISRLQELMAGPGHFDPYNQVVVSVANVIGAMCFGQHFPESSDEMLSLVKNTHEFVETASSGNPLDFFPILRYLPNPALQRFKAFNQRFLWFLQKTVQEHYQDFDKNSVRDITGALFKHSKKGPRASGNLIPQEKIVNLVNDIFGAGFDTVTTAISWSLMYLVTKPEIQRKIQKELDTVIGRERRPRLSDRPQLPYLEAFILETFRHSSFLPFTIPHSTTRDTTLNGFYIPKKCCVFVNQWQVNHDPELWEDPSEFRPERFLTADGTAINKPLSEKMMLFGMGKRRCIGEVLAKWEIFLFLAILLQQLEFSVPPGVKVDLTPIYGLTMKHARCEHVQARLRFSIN
- Test: Inhibitory effect on CYP coenzyme activity, human liver microsomes
- Format: in vitro ADME
- Assay setup: 10 μM compound, human liver microsomes 0.25 mg/mL, substrate phenacetin, 15 minutes
Record form. Attribute: CYP1A2 coenzyme activity (%) with respect to control group not treated. Fill in for each entry.
I only need the number, in %, no unit after it.

Item "Cc1cc(=O)n(C)c2ccc(NN=C(C#N)C#N)cc12" has what recorded CYP1A2 coenzyme activity (%) with respect to control group not treated? 58.7

Item "Cc1cc2c(NN=C(C#N)C#N)cccc2c(=O)n1C" has what recorded CYP1A2 coenzyme activity (%) with respect to control group not treated? 33.2

Item "Cn1ccc2ccc(NN=C(C#N)C#N)cc2c1=O" has what recorded CYP1A2 coenzyme activity (%) with respect to control group not treated? 43.5

---

- Tested target: tau protein (Homo sapiens)
- Construct: BiFC fluorescent-protein fragments (type and halves not specified); expressed in transfected cells
- Sequence (P10636 1-441 isoform P10636-8): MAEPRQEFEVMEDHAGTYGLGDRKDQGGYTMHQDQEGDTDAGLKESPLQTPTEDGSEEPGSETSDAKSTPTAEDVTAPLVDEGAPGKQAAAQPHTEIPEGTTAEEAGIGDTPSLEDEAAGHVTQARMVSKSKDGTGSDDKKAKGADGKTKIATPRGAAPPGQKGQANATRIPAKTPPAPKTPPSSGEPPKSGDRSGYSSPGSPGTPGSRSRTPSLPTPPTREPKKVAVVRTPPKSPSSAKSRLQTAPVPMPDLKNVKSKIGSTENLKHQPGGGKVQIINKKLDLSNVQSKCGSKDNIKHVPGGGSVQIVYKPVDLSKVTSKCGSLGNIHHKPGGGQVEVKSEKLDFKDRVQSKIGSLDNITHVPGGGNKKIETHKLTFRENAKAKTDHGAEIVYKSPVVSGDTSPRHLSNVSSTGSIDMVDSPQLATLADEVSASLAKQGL
- Test: Tau-BiFC cell model, inhibition of Forskolin-induced tau protein aggregation
- Type: cell-based
- Assay setup: 10 μM compound, Forskolin 30 μM, 48 hours; Forskolin-only group = 100% tau protein-aggregated state
Value kind: Tau BiFC in cells Response (% @10 μM) (%)
I only need the number, in %, no unit after it.

Item CC(C)n1ccc2c(NN=C(C#N)C#N)cccc2c1=O [Compound 6] has what recorded Tau BiFC in cells Response (% @10 μM)? 0

Item CCn1c(=O)n(C)c2ncc(NN=C(C#N)C#N)cc21 [Compound 44] has what recorded Tau BiFC in cells Response (% @10 μM)? 10

Item N#CC(C#N)=NNc1ccc2c(c1)sc(=O)n2C(F)F [Compound 19] has what recorded Tau BiFC in cells Response (% @10 μM)? 0

Item CC(C)n1c(=O)oc2cc(NN=C(C#N)C#N)ccc21 [Compound 20] has what recorded Tau BiFC in cells Response (% @10 μM)? 0

Item Cc1cc2c(cc1NN=C(C#N)C#N)n(C)c(=O)n2C [Compound 31] has what recorded Tau BiFC in cells Response (% @10 μM)? 47

Item CCn1c(=O)n(C)c2cc(NN=C(C#N)C#N)ccc21 [Compound 38] has what recorded Tau BiFC in cells Response (% @10 μM)? −31

Item COc1cc2c(cc1NN=C(C#N)C#N)n(C)c(=O)n2C [Compound 32] has what recorded Tau BiFC in cells Response (% @10 μM)? 38

Item N#CC(C#N)=NNc1ccc2c(c1)n(C(F)F)c(=O)n2C(F)F [Compound 24] has what recorded Tau BiFC in cells Response (% @10 μM)? 0

Item CC(C)n1c(=O)n(C2CC2)c2ccc(NN=C(C#N)C#N)cc21 [Compound 42] has what recorded Tau BiFC in cells Response (% @10 μM)? −52

Item Cn1c(=O)n(-c2ccccc2)c2cc(NN=C(C#N)C#N)cnc21 [Compound 47] has what recorded Tau BiFC in cells Response (% @10 μM)? 13

Item CCn1c(=O)n(C(F)F)c2cc(NN=C(C#N)C#N)cnc21 [Compound 50] has what recorded Tau BiFC in cells Response (% @10 μM)? 2

Item N#CC(C#N)=NNc1ccc2oc(=O)n(C(F)F)c2c1 [Compound 30] has what recorded Tau BiFC in cells Response (% @10 μM)? 36

Item Cn1ccc2c(NN=C(C#N)C#N)cccc2c1=O [Compound 5] has what recorded Tau BiFC in cells Response (% @10 μM)? 0

Item Cn1c(=O)n(C2CC2)c2ccc(NN=C(C#N)C#N)cc21 [Compound 40] has what recorded Tau BiFC in cells Response (% @10 μM)? −38

Item Cn1c(=O)n(C(F)F)c2cc(NN=C(C#N)C#N)ccc21 [Compound 37] has what recorded Tau BiFC in cells Response (% @10 μM)? −49

Item Cc1cc(=O)n(C)c2ccc(NN=C(C#N)C#N)cc12 [Compound 27] has what recorded Tau BiFC in cells Response (% @10 μM)? −41

Item CCn1c(=O)n(C2CC2)c2ncc(NN=C(C#N)C#N)cc21 [Compound 52] has what recorded Tau BiFC in cells Response (% @10 μM)? −30

Item CC(C)n1c(=O)oc2ccc(NN=C(C#N)C#N)cc21 [Compound 29] has what recorded Tau BiFC in cells Response (% @10 μM)? −31

Item N#CC(C#N)=NNc1ccc2[nH]c(=O)sc2c1 [Compound 13] has what recorded Tau BiFC in cells Response (% @10 μM)? 0.8

Item Cn1c(=O)oc2ccc(NN=C(C#N)C#N)cc21 [Compound 28] has what recorded Tau BiFC in cells Response (% @10 μM)? 13

Item N#CC(C#N)=NNc1ccc2[nH]c(=O)ccc2c1 [Compound 8] has what recorded Tau BiFC in cells Response (% @10 μM)? 0

Item CCn1c(=O)n(C(C)C)c2ncc(NN=C(C#N)C#N)cc21 [Compound 55] has what recorded Tau BiFC in cells Response (% @10 μM)? −32

Item CC(C)n1c(=O)n(C)c2ncc(NN=C(C#N)C#N)cc21 [Compound 45] has what recorded Tau BiFC in cells Response (% @10 μM)? −24

Item N#CC(C#N)=NNc1cccc2c(=O)[nH]ccc12 [Compound 4] has what recorded Tau BiFC in cells Response (% @10 μM)? 0

Item CCn1c(=O)n(C(F)F)c2cc(NN=C(C#N)C#N)ccc21 [Compound 39] has what recorded Tau BiFC in cells Response (% @10 μM)? −45

Item N#CC(C#N)=NNc1ccc2c(c1)oc(=O)n2C(F)F [Compound 21] has what recorded Tau BiFC in cells Response (% @10 μM)? 0

Item Cn1c(=O)n(C)c2cc(NN=C(C#N)C#N)c(Cl)cc21 [Compound 10] has what recorded Tau BiFC in cells Response (% @10 μM)? 0

Item CC(C)n1c(=O)n(C2CC2)c2ncc(NN=C(C#N)C#N)cc21 [Compound 53] has what recorded Tau BiFC in cells Response (% @10 μM)? −39

Item CCn1c(=O)n(C)c2cc(NN=C(C#N)C#N)cnc21 [Compound 48] has what recorded Tau BiFC in cells Response (% @10 μM)? −18

Item CCn1c(=O)n(C)c2ccc(NN=C(C#N)C#N)cc21 [Compound 35] has what recorded Tau BiFC in cells Response (% @10 μM)? −44

Item Cc1cc(=O)[nH]c2ccc(NN=C(C#N)C#N)cc12 [Compound 26] has what recorded Tau BiFC in cells Response (% @10 μM)? −5

Item Cc1cc2c(NN=C(C#N)C#N)cccc2c(=O)n1C [Compound 7] has what recorded Tau BiFC in cells Response (% @10 μM)? 0

Item Cn1c(=O)n(C)c2cc(NN=C(C#N)C#N)c(F)cc21 [Compound 9] has what recorded Tau BiFC in cells Response (% @10 μM)? 0

Item CCn1c(=O)n(C2CC2)c2ccc(NN=C(C#N)C#N)cc21 [Compound 41] has what recorded Tau BiFC in cells Response (% @10 μM)? −54

Item N#CC(C#N)=NNc1ccc2[nH]c(=O)oc2c1 [Compound 15] has what recorded Tau BiFC in cells Response (% @10 μM)? 5.5

Item N#CC(C#N)=NNc1ccc2cc[nH]c(=O)c2c1 [Compound 1] has what recorded Tau BiFC in cells Response (% @10 μM)? 0

Item CC(C)n1c(=O)n(C)c2cc(NN=C(C#N)C#N)cnc21 [Compound 54] has what recorded Tau BiFC in cells Response (% @10 μM)? −38

Item CC(C)n1c(=O)n(C(F)F)c2cc(NN=C(C#N)C#N)ccc21 [Compound 43] has what recorded Tau BiFC in cells Response (% @10 μM)? −49

Item Cn1c(=O)oc2cc(NN=C(C#N)C#N)ccc21 [Compound 16] has what recorded Tau BiFC in cells Response (% @10 μM)? 0

Item Cn1c(=O)n(C2CC2)c2ncc(NN=C(C#N)C#N)cc21 [Compound 51] has what recorded Tau BiFC in cells Response (% @10 μM)? −11

All figures here come from patent US12590066B2.
